Biological target: Regulator of G-protein signaling 8 (Homo sapiens, UniProt P57771)
Sequence (P57771 whole entry): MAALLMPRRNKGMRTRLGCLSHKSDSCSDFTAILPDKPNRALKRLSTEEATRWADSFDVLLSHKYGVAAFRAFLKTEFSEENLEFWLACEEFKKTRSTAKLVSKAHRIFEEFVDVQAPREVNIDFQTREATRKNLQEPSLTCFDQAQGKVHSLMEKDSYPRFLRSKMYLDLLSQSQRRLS
Experiment: RGS8-Galphao interaction modulators, SAR follow-up, biochemical, multiplex bead flow cytometry, SAR compounds (AID 2307)
result type: EC50 (nM)

Suppose we examine the molecule `CC1(C)OC(=O)C(=Cc2ccc(-c3ccc(S(N)(=O)=O)cc3)o2)C(=O)O1` ; what EC50 value has been reported?
701

Suppose we examine the molecule Nc1c(C(=O)NCC2CCCO2)sc2nc3c(c(-c4ccco4)c12)CC/C3=C/c1ccco1 (centres undefined) ; what EC50 value has been reported?
489

Suppose we examine the molecule `Cc1cc(Cl)ccc1/N=c1/ssnc1Cl` ; what EC50 value has been reported?
127

Suppose we examine the molecule Cc1cccc(N2CCN(C(=O)COc3nsc4nc(C)cc(C)c34)CC2C)c1 (centres undefined) ; what EC50 value has been reported?
3180

Suppose we examine the molecule `CCN=c1scc(C)n1N=Cc1ccc(O)c(O)c1O` ; what EC50 value has been reported?
573

1 = CCN(CC)S(=O)(=O)c1cccc(C(=O)NN=Cc2ccc(O)c(O)c2O)c1
2 = O=C1C(Cl)=C(N2CCCCC2)C(=O)C(Cl)=C1c1cnc(N2CCCCC2)s1
3 = CCC(=O)NC(c1ccc(C)cc1)c1cc([N+](=O)[O-])c2cccnc2c1O (centres undefined)
4 = CN1CCN(C2=C(Cl)C(=O)C(c3cnc(N4CCCCC4)s3)=C(Cl)C2=O)CC1
In this exercise, place the 4 molecules in ascending sequence of their recorded EC50. The labels, placed in the requested order, form the answer.
4, 2, 1, 3
